List of IC50 values.
Target: human GnRH receptor (Homo sapiens)
Construct: expressed in transfected cells; host or cells: CHO (Chinese Hamster Ovary) cells, membrane fraction
Sequence (P30968 1-328): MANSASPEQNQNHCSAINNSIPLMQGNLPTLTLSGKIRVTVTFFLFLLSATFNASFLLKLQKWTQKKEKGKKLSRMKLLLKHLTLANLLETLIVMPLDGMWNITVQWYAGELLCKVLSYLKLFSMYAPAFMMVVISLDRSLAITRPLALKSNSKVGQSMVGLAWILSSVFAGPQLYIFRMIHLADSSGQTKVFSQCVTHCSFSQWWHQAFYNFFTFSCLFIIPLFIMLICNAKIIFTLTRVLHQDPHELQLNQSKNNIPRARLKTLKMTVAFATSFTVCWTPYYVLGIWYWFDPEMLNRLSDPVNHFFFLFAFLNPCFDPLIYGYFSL
Test: Test for inhibition of ^125 I-leuprorelin binding to human GnRH receptor
Conditions: membrane fraction of CHO cells expressing human GnRH receptors, 25° C., 60 minutes, read-out: Binding Inhibitory Activity (IC50, μM) for human GnRH receptor
Value expressed in µM; do not type the unit.

Solved cases (3 shown):
compound="O=C1c2ccccc2C(O)N1CC(=O)N1c2ccccc2N(Cc2ccccc2)C[C@H]2CCC[C@H]21 (stereo partly shown)" test_system="human GnRH receptor (Homo sapiens)" result=8
compound="O=C1c2ccccc2C(=O)N1CC(=O)N1c2ccccc2N(Cc2ccccc2F)C(=O)[C@H]2CCC[C@H]21 (relative stereo)" test_system="human GnRH receptor (Homo sapiens)" result=3
compound="O=C1c2ccccc2C(=O)N1CC(=O)N1c2ccccc2N(Cc2ccccc2)C(=O)[C@H]2CCCC[C@H]21 (relative stereo)" test_system="human GnRH receptor (Homo sapiens)" result=3

Now turn to the next compound.
Item CSc1ccc(CN2C(=O)[C@H]3CCC[C@H]3N(C(=O)CN3C(=O)c4ccccc4C3=O)c3ccccc32)cc1 (relative stereo) has what recorded IC50?
1

* * *

target: human GnRH receptor (Homo sapiens, UniProt P30968); construct: expressed in transfected cells; host or cells: CHO (Chinese Hamster Ovary) cells, membrane fraction; assay: Test for inhibition of ^125 I-leuprorelin binding to human GnRH receptor; conditions: membrane fraction of CHO cells expressing human GnRH receptors, 25° C., 60 minutes, read-out: Binding Inhibitory Activity (IC50, μM) for human GnRH receptor
measurement type: log10(IC50) (log10 of the value in µM)
Quick note: numbers are log10 of IC50, with µM as the unit.

molecule="O=C1c2ccccc2C(=O)N1CC(=O)N1c2ccccc2N(CCc2ccccc2)C(=O)[C@H]2CCC[C@H]21 (relative stereo)" result=-0.15

Now turn to the next molecule.
Item O=C1c2ccccc2C(=O)N1CC(=O)N1c2ccccc2N(Cc2cccc([N+](=O)[O-])c2)C(=O)[C@H]2CCC[C@H]21 (relative stereo) has what recorded log10(IC50)?
0.30

* * *

target: human GnRH receptor (Homo sapiens, UniProt P30968); construct: expressed in transfected cells; host or cells: CHO (Chinese Hamster Ovary) cells, membrane fraction; assay: Test for inhibition of ^125 I-leuprorelin binding to human GnRH receptor; details: membrane fraction of CHO cells expressing human GnRH receptors, 25° C., 60 minutes, read-out: Binding Inhibitory Activity (IC50, μM) for human GnRH receptor
Each record is given fulfilled if its reported IC50 is strictly below 6 µM. Records at or above 6 µM are given not fulfilled.

Worked cases, answers included:
compound="O=C1c2ccc(F)cc2C(=O)N1CC(=O)N1c2ccccc2N(Cc2ccccc2)C(=O)[C@H]2CCC[C@H]21 (relative stereo)" answer_label=fulfilled
compound="O=C1c2cccc(O)c2C(=O)N1CC(=O)N1c2ccccc2N(Cc2ccccc2)C(=O)[C@H]2CCC[C@H]21 (relative stereo)" answer_label="not fulfilled"
compound="O=C1c2ccccc2C(=O)N1CC(=O)N1c2ccccc2N(Cc2ccccn2)C(=O)[C@H]2CCC[C@H]21 (relative stereo)" answer_label=fulfilled
compound="CC1=C(C)C(=O)N(CC(=O)N2c3ccccc3N(Cc3ccccc3)C(=O)[C@H]3CCC[C@H]32)C1=O (relative stereo)" answer_label="not fulfilled"
compound="O=C1c2ccccc2C(=O)N1CC(=O)N1c2ccccc2N(c2ccccc2)C(=O)C2CCCC21 (stereo not shown)" answer_label="not fulfilled"

Field: below-cutoff. Rule: recorded IC50 strictly less than 6 µM. Subject: COc1ccc(CN2C(=O)C3CCCC3N(C(=O)CN3C(=O)c4ccccc4C3=O)c3ccccc32)cc1 (stereo not shown)
fulfilled

Field: below-cutoff. Rule: recorded IC50 strictly less than 6 µM. Subject: Nc1cccc2c1C(=O)N(CC(=O)N1c3ccccc3N(Cc3ccccc3)C(=O)[C@H]3CCC[C@H]31)C2=O (relative stereo)
fulfilled

Field: below-cutoff. Rule: recorded IC50 strictly less than 6 µM. Subject: O=C1C2=C(CCCC2)C(=O)N1CC(=O)N1c2ccccc2N(Cc2ccc3ccccc3c2)C(=O)[C@H]2CCC[C@H]21 (relative stereo)
fulfilled

Field: below-cutoff. Rule: recorded IC50 strictly less than 6 µM. Subject: O=C1c2ccccc2C(=O)N1CC(=O)N1c2ccccc2N(Cc2ccc(O)cc2)C(=O)[C@H]2CCC[C@H]21 (relative stereo)
fulfilled
